molecular target: T1, human PD-1 (soluble PD-1 protein, R&D Systems) (human, UniProt Q15116 25-170, limits assumed); assay: BLI (ForteBio), mAb on AHC biosensor, PD-1 as analyte
T1 construct: the kinetics paragraphs say only 'PD-1' / 'antigen'; also called hPD-1; soluble PD-1 immunogen
T1 sequence (Q15116 25-170 limits assumed): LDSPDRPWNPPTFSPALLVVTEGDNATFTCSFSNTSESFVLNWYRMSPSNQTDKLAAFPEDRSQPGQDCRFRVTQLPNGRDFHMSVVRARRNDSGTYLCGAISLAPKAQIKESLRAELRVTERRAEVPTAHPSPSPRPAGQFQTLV
Recorded Metric: kon (M⁻¹ s⁻¹)
Give the quantity in M⁻¹ s⁻¹, number only.

Q) Using the record for A18 (antibody, V domains shown, Tested as full-length mAb expressed in CHO cells; also called antibody 18; L18H18) VH: QVQLVQSGTEVKKPGASVKVSCQASGYTFTSYDISWVRRAPGQGLEWMGWISAYNGNTNYAQKLQGRVTLTTDTSTSTAYMELRSLRSDDTAVYYCARRYYDILTEGGYYYVLDVWGQGTTVTVSS VL: AIRMTQSPSSFSASTGDRVTITCRASQGISSYLAWYQQKPGKAPTLLIYAASTLQSGVPSRFSGSGSGTDFTLTISCLQSEDFATYYCQQYYSDPPTFGQGTKVEIK , report its kon.
A) 124000

Q) What do you have for A26 (antibody, V domains shown, Tested as full-length mAb expressed in CHO cells; also called antibody 26; L26H26) VH: QVQLVESGGGVVQPGRSLRLSCAASGFTFSDYGMHWVRQAPGKGLEWVAVIWYDGSNKYYTDSVKGRFTISRDNSKNTLYLQMSSLRAEDAAVYYCAVNPFDYWGQGTLVTVSS VL: DIQMTQSPSSLSASVGDRVTISCRASQGISNYLAWYQQKPGKVPKVLIYGASTLQSGVPSRFSGSGSGTDFTLTISSLQPEDVATYYCQKYNSAPYTFGQGTKLEIK ?
A) 174000

Q) What do you have for A16 (antibody, V domains shown, Tested as full-length mAb expressed in CHO cells; also called antibody 16; L16H16) VH: QVQLVESGGGVVQPGRSLTLSCAASGFTFSNYGMYWVRQAPGKGLEWVAVIWYDGSNKYYADSVKGRFTISRDNSKNTLYLQMNSLRAEDTAVYYCAGGGSYSGDYWGQGTLVTVSS VL: DIQMTQSPSSLSASVGDRVTITCRTSQDIRNDLGWYQQKPGKAPKRLIYAVSSLQSGVPSRFSGSGSGTEFTFTISSLQPEDFATYYCLQYNTYPFTFGPGTTVDIK ?
A) 76100
